- system.tested: Beta-lactamase TEM (Bacteria, UniProt P62593)
- Sequence (P62593 whole entry): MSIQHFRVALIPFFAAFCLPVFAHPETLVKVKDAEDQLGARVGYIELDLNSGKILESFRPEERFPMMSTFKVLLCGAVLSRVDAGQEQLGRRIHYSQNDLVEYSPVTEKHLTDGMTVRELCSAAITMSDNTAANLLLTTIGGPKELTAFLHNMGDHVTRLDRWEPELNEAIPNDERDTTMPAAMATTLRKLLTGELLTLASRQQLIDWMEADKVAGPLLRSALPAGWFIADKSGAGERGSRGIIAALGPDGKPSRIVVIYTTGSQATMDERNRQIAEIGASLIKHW
- procedure.text: Inhibition of bacterial Beta-lactamase TEM-1 (24 - 286) (unknown origin) expressed in Escherichia coli Transetta (DE3)
outcome.measure: pIC50
Bear in mind: pIC50 is minus log10 of a mol/L concentration; give just that figure.

[
  {
    "compound": "OB1OC(c2cccs2)c2ccccc21 (centres undefined)",
    "pIC50": 5.16
  },
  {
    "compound": "CN(C)c1ccc(C2OB(O)c3cccc(F)c32)cc1 (centres undefined)",
    "pIC50": 4.68
  },
  {
    "compound": "CNc1ccc(C2OB(O)c3cccc(F)c32)cc1 (centres undefined)",
    "pIC50": 4.42
  },
  {
    "compound": "CN(C)c1ccc(C2OB(O)c3cc4c(cc32)OCO4)cc1 (centres undefined)",
    "pIC50": 5.94
  },
  {
    "compound": "CNc1ccc(C2OB(O)c3ccccc32)cc1 (centres undefined)",
    "pIC50": 5.49
  }
]

From here, focus on the item given below.
Data request: State the recorded pIC50 for this entry: CN(C)c1ccc(C2OB(O)c3cc(Cl)ccc32)cc1 (centres undefined)
Data returned: 5.36

====

- procedure.text: Inhibition of bacterial Beta-lactamase OXA-48 (1 - 265) (unknown origin) expressed in Escherichia coli Transetta (DE3)
- Design: species or system Bacteria
# note: exactly 4 µM is not below, so it is not met; use met for IC50 strictly under it

Would you please look over these solved cases?
[
  {
    "molecule": "CN(C)c1ccc(C2OB(O)c3ccc(Cl)cc32)cc1 (configuration not stated)",
    "cat": "met"
  },
  {
    "molecule": "CN(C)c1ccc(C2OB(O)c3cccc(F)c32)cc1 (configuration not stated)",
    "cat": "not met"
  },
  {
    "molecule": "OB1OC(c2cn(Cc3ccccc3)c3ccccc23)c2ccccc21 (configuration not stated)",
    "cat": "not met"
  },
  {
    "molecule": "OB1OC(c2c[nH]c3ccccc23)c2ccccc21 (configuration not stated)",
    "cat": "not met"
  }
]

Data request: Could you please tell me whether IC50 recorded for CN(C)c1ccc(C2OB(O)c3ccccc32)cc1 (configuration not stated) is less than 4 µM?
Data returned: met

Data request: Dear reviewer, please state whether OB1OC(c2c[nH]c3ccc(Cl)cc23)c2ccccc21 (configuration not stated) has IC50 strictly beneath 4 µM.
Data returned: not met

Data request: hey, is IC50 for COc1ccc2c(c1)C(c1ccc(N(C)C)cc1)OB2O (configuration not stated) lower than 4 µM or not?
Data returned: met

Data request: For OB1OC(c2c[nH]c3ccccc23)c2c(F)cccc21 (configuration not stated) , is the recorded IC50 below the cut-off of 4 µM?
Data returned: not met

Data request: Record OB1OC(c2c[nH]c3ccc(Br)cc23)c2ccccc21 (configuration not stated) : is its IC50 strictly below 4 µM?
Data returned: not met

Data request: Given CN(C)c1ccc(C2OB(O)c3ccc(F)cc32)cc1 (configuration not stated) , is recorded IC50 strictly lower than 4 µM?
Data returned: met

Data request: Here's an entry: CN(C)c1ccc(C2OB(O)c3cc4c(cc32)OCO4)cc1 (configuration not stated) . Is its IC50 below 4 µM?
Data returned: not met

Data request: Given the entry CNc1ccc(C2OB(O)c3ccccc32)cc1 (configuration not stated) , would its reported IC50 be below 4 µM?
Data returned: met

Recorded values, source ChEMBL document CHEMBL4813997.
